# Test system: NCI-H661
# TEST_NAME: relative viability (nuclei count vs DMSO), 5 days (fraction); higher = more cells survive
# CONDITION_PARAMETERS: first compound 0.04 µM
QUANTITY: relative viability
Just the number, please, no unit after it.

Would you please look over these solved cases?
Cc1sc2c(c1C)C(c1ccc(Cl)cc1)=N[C@@H](CC(=O)OC(C)(C)C)c1nnc(C)n1-2 [JQ1] + Cc1nc(NC(=O)N2CCC[C@H]2C(N)=O)sc1-c1ccnc(C(C)(C)C(F)(F)F)c1 [Alpelisib] (partner 2 µM); 0.524
Cc1sc2c(c1C)C(c1ccc(Cl)cc1)=N[C@@H](CC(=O)OC(C)(C)C)c1nnc(C)n1-2 [JQ1] + CCNC(=O)c1noc(-c2cc(C(C)C)c(O)cc2O)c1-c1ccc(CN2CCOCC2)cc1 [Luminespib] (partner 0.01 µM); 0.971
Cc1sc2c(c1C)C(c1ccc(Cl)cc1)=N[C@@H](CC(=O)OC(C)(C)C)c1nnc(C)n1-2 [JQ1] + O=C(c1cc(Cc2n[nH]c(=O)c3ccccc23)ccc1F)N1CCN(C(=O)C2CC2)CC1 [Olaparib] (partner 8 µM); 0.75

Data request, read-out relative viability, for Cc1sc2c(c1C)C(c1ccc(Cl)cc1)=N[C@@H](CC(=O)OC(C)(C)C)c1nnc(C)n1-2 [JQ1] + N=C(N)NC(=N)NCCc1ccccc1 [Phenformin] (partner 250 µM)
0.264

---

# Test system: RERF-LC-KJ
# TEST_NAME: relative viability (nuclei count vs DMSO), 5 days (fraction); higher = more cells survive
# CONDITION_PARAMETERS: first compound 0.005 µM
QUANTITY: relative viability

Would you please look over these solved cases?
Nc1ccn([C@@H]2O[C@H](CO)[C@@H](O)[C@@H]2O)c(=O)n1 [Cytarabine] + N=C(N)NC(=N)NCCc1ccccc1 [Phenformin] (partner 250 µM); 0.381
Nc1ccn([C@@H]2O[C@H](CO)[C@@H](O)[C@@H]2O)c(=O)n1 [Cytarabine] + CS(=O)(=O)N1CCN(Cc2cc3nc(-c4cccc5[nH]ncc45)nc(N4CCOCC4)c3s2)CC1 [Pictilisib] (partner 1 µM); 0.493
Nc1ccn([C@@H]2O[C@H](CO)[C@@H](O)[C@@H]2O)c(=O)n1 [Cytarabine] + C[C@@H](Oc1cc(-c2cnn(C3CCNCC3)c2)cnc1N)c1c(Cl)ccc(F)c1Cl [Crizotinib] (partner 1 µM); 0.853

Data request, read-out relative viability, for Nc1ccn([C@@H]2O[C@H](CO)[C@@H](O)[C@@H]2O)c(=O)n1 [Cytarabine] + CC(C)C[C@H](NC(=O)[C@H](Cc1ccccc1)NC(=O)c1cnccn1)B(O)O [Bortezomib] (partner 0.002 µM)
1.01

Data request, read-out relative viability, for Nc1ccn([C@@H]2O[C@H](CO)[C@@H](O)[C@@H]2O)c(=O)n1 [Cytarabine] + COc1cc2c(Oc3ccc(NC(=O)C4(C(=O)Nc5ccc(F)cc5)CC4)cc3F)ccnc2cc1OCCCN1CCOCC1 [Foretinib] (partner 0.25 µM)
0.855

---

Collected relative viability values appear next to each entry.
# Test system: NCI-H1993
# TEST_NAME: relative viability (nuclei count vs DMSO), 5 days (fraction); higher = more cells survive
# CONDITION_PARAMETERS: first compound 50 µM

Would you please look over these solved cases?
O=C(O)CCCCC(CCSCc1ccccc1)SCc1ccccc1 (stereo not given) [CPI-613] + Nc1ncn([C@H]2C[C@H](O)[C@@H](CO)O2)c(=O)n1 [Decitabine] (partner 2 µM); 0.679
O=C(O)CCCCC(CCSCc1ccccc1)SCc1ccccc1 (stereo not given) [CPI-613] + Cc1nc(Nc2ncc(C(=O)Nc3c(C)cccc3Cl)s2)cc(N2CCN(CCO)CC2)n1 [Dasatinib] (partner 0.075 µM); 0.605

Data request, read-out relative viability, for O=C(O)CCCCC(CCSCc1ccccc1)SCc1ccccc1 (stereo not given) [CPI-613] + Cc1nc(NC(=O)N2CCC[C@H]2C(N)=O)sc1-c1ccnc(C(C)(C)C(F)(F)F)c1 [Alpelisib] (partner 2 µM)
0.752

Data request, read-out relative viability, for O=C(O)CCCCC(CCSCc1ccccc1)SCc1ccccc1 (stereo not given) [CPI-613] + Nc1nc2[nH]cc(CCc3ccc(C(=O)N[C@@H](CCC(=O)O)C(=O)O)cc3)c2c(=O)[nH]1 [Pemetrexed] (partner 0.2 µM)
0.537

Data request, read-out relative viability, for O=C(O)CCCCC(CCSCc1ccccc1)SCc1ccccc1 (stereo not given) [CPI-613] + O=C(CCCCCCC(=O)Nc1ccccc1)NO [Vorinostat] (partner 1 µM)
0.61

---

# Test system: NCI-H322M
# TEST_NAME: relative viability (nuclei count vs DMSO), 5 days (fraction); higher = more cells survive
# CONDITION_PARAMETERS: first compound 0.1265 µM
Collected relative viability values appear next to each entry.
Just the number, please, no unit after it.

Cc1sc2c(c1C)C(c1ccc(Cl)cc1)=N[C@@H](CC(=O)OC(C)(C)C)c1nnc(C)n1-2 [JQ1] + COc1cccc2cc(-c3nc([C@H]4CC[C@H](C(=O)O)CC4)n4ncnc(N)c34)[nH]c12 [OSI-027] (partner 0.5 µM); 0.589
Cc1sc2c(c1C)C(c1ccc(Cl)cc1)=N[C@@H](CC(=O)OC(C)(C)C)c1nnc(C)n1-2 [JQ1] + Cc1nc(Nc2ncc(C(=O)Nc3c(C)cccc3Cl)s2)cc(N2CCN(CCO)CC2)n1 [Dasatinib] (partner 0.075 µM); 0.245
Cc1sc2c(c1C)C(c1ccc(Cl)cc1)=N[C@@H](CC(=O)OC(C)(C)C)c1nnc(C)n1-2 [JQ1] + CC(=O)Nc1cccc(-n2c(=O)n(C3CC3)c(=O)c3c(Nc4ccc(I)cc4F)n(C)c(=O)c(C)c32)c1 [Trametinib] (partner 0.02 µM); 0.644

Data request, read-out relative viability, for Cc1sc2c(c1C)C(c1ccc(Cl)cc1)=N[C@@H](CC(=O)OC(C)(C)C)c1nnc(C)n1-2 [JQ1] + CC(C)C[C@H](NC(=O)[C@H](Cc1ccccc1)NC(=O)c1cnccn1)B(O)O [Bortezomib] (partner 0.002 µM)
1.24

---

# Tested on: NCI-H650
# TEST_NAME: relative viability (nuclei count vs DMSO), 5 days (fraction); higher = more cells survive
# CONDITION_PARAMETERS: first compound 0.08 µM
Label scheme for relative viability: I: < 0.7; II: ≥ 0.7 and < 0.9; III: ≥ 0.9

Cc1cnc(-c2cnc(NCCNc3ccc(C#N)cn3)nc2-c2ccc(Cl)cc2Cl)[nH]1 + CC(=O)c1c(C)c2cnc(Nc3ccc(N4CCNCC4)cn3)nc2n(C2CCCC2)c1=O [Palbociclib] (partner 0.5 µM); I

In plain terms, what class is Cc1cnc(-c2cnc(NCCNc3ccc(C#N)cn3)nc2-c2ccc(Cl)cc2Cl)[nH]1 + CS(=O)(=O)N1CCN(Cc2cc3nc(-c4cccc5[nH]ncc45)nc(N4CCOCC4)c3s2)CC1 [Pictilisib] (partner 1 µM) ?
III

In plain terms, what class is O=c1[nH]c2ccccc2n1C1CCN(CCCC(c2ccc(F)cc2)c2ccc(F)cc2)CC1 [Pimozide] + C[C@]1(O)C[C@@H](c2nc(-c3ccc4ccc(-c5ccccc5)nc4c3)c3c(N)nccn32)C1 [Linsitinib] (partner 1 µM) ?
II

In plain terms, what class is O=c1[nH]c2ccccc2n1C1CCN(CCCC(c2ccc(F)cc2)c2ccc(F)cc2)CC1 [Pimozide] + Nc1nc2[nH]cc(CCc3ccc(C(=O)N[C@@H](CCC(=O)O)C(=O)O)cc3)c2c(=O)[nH]1 [Pemetrexed] (partner 0.2 µM) ?
III

In plain terms, what class is Cc1cnc(-c2cnc(NCCNc3ccc(C#N)cn3)nc2-c2ccc(Cl)cc2Cl)[nH]1 + O=C(c1cc(Cc2n[nH]c(=O)c3ccccc23)ccc1F)N1CCN(C(=O)C2CC2)CC1 [Olaparib] (partner 8 µM) ?
I

In plain terms, what class is Cc1cnc(-c2cnc(NCCNc3ccc(C#N)cn3)nc2-c2ccc(Cl)cc2Cl)[nH]1 + NC(=O)Nc1cc(-c2cccc(F)c2)sc1C(=O)N[C@H]1CCCNC1 [AZD7762] (partner 0.2 µM) ?
III

In plain terms, what class is O=c1[nH]c2ccccc2n1C1CCN(CCCC(c2ccc(F)cc2)c2ccc(F)cc2)CC1 [Pimozide] + CS(=O)(=O)N1CCN(Cc2cc3nc(-c4cccc5[nH]ncc45)nc(N4CCOCC4)c3s2)CC1 [Pictilisib] (partner 1 µM) ?
II

---

# Test system: BEN
# TEST_NAME: relative viability (nuclei count vs DMSO), 5 days (fraction); higher = more cells survive
# CONDITION_PARAMETERS: first compound 50 µM
Collected relative viability values appear next to each entry.
Just the number, please, no unit after it.

Data request, read-out relative viability, for O=C(O)CCCCC(CCSCc1ccccc1)SCc1ccccc1 (stereo not drawn) [CPI-613] + COc1cc2c(Oc3ccc(NC(=O)C4(C(=O)Nc5ccc(F)cc5)CC4)cc3F)ccnc2cc1OCCCN1CCOCC1 [Foretinib] (partner 0.25 µM)
0.602

Data request, read-out relative viability, for O=C(O)CCCCC(CCSCc1ccccc1)SCc1ccccc1 (stereo not drawn) [CPI-613] + CC(C)C[C@H](NC(=O)[C@H](Cc1ccccc1)NC(=O)c1cnccn1)B(O)O [Bortezomib] (partner 0.002 µM)
0.633

Data request, read-out relative viability, for O=C(O)CCCCC(CCSCc1ccccc1)SCc1ccccc1 (stereo not drawn) [CPI-613] + Cc1nc(NC(=O)N2CCC[C@H]2C(N)=O)sc1-c1ccnc(C(C)(C)C(F)(F)F)c1 [Alpelisib] (partner 2 µM)
0.969
